activity change, negative = inhibition for assorted molecules
test: NFAT Signaling Pathway (AID 444); conditions: Jurkat NFAT-bla M1, carbachol, beta-lactamase ratio, 5 h; at 17.2 µM (top of the series) unless noted;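 also: carbachol stimulus at about its EC50 of 1 µM final; % is scaled to controls: 0 for no effect and ±100 for the full control effect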
Results filed as inconclusive are left out.
parameter: activity change, negative = inhibition (%)

molecule=CC(=O)N1CC=C2C(C#N)=C(N)C(C#N)(C#N)[C@H](c3ccoc3)[C@H]2C1 parameter="activity change, negative = inhibition" testresult=-12.2
molecule="O=C(NCc1ccco1)c1cnn2c1NC(c1ccccc1)CC2C(F)(F)F (configuration not stated)" parameter="activity change, negative = inhibition" testresult=-2.99
molecule="COc1ccccc1C1/C(=C(/O)c2ccc(C)cc2)C(=O)C(=O)N1CCN1CCOCC1 (configuration not stated)" parameter="activity change, negative = inhibition" testresult=19.8
molecule="N#CC1(c2ccccc2)CCC(=NO)CC1 (configuration not stated)" parameter="activity change, negative = inhibition" testresult=8.2
molecule=CN1C(=O)C2(N=c3ccccc3=N2)c2ccccc21 parameter="activity change, negative = inhibition" testresult=25.6
molecule="CCN(CC)C(=O)CSC1=C(C#N)C(c2cccs2)C=C(C)N1 (configuration not stated)" parameter="activity change, negative = inhibition" testresult=-9.19
molecule=CCOC(=O)c1c(C)n(C)c2ccc(OC)c(NC(=O)CCN3CCSCC3)c12 parameter="activity change, negative = inhibition" testresult=4.14
molecule=O=S(=O)(c1cccc2nsnc12)N1CCN(C/C=C/c2ccccc2)CC1 parameter="activity change, negative = inhibition" testresult=-13.3
molecule=O=C1CSC(=Nc2ccc(O)cc2)N1c1ccc(O)cc1 parameter="activity change, negative = inhibition" testresult=-9.67
molecule=CCOc1cccc(-c2nnc3sc(-c4ccc(C)cc4)nn23)c1 parameter="activity change, negative = inhibition" testresult=-19.6
molecule=CC(C)OC(=O)CC1=NC(=O)CS1 parameter="activity change, negative = inhibition" testresult=8.36
molecule=CN(C)/C=C1\N=C(c2cccs2)OC1=O parameter="activity change, negative = inhibition" testresult=6.03

----------
system: CP256; test: qHTS profiling for inhibitors of Plasmodium falciparum proliferation (AID 504749);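 also: 0% = DMSO vehicle and full inhibition = artemisinin control; nearly all actives have a fitted effect of over 60% in size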; conditions: P. falciparum in erythrocytes, SYBR Green DNA, 72 h; series mostly up to 28.7 µM
Records with an inconclusive call do not appear. Activity calls are given as the source filed them. Calls follow the shape of the dose curve; as a rule, active = well fitted inhibition curve with a large enough effect; inconclusive = small, poorly fitted or top-dose-only effect; inactive = flat fitted curve, though single readings scatter.
parameter: outcome

compound=C#C[C@]1(O)CC[C@H]2[C@H]3[C@H](CC[C@@]21C)C1=C(CC(=O)CC1)C[C@@H]3C testresult=inactive
compound=CC(=O)NC[C@@H]1CN(c2ccc(N3CCOCC3)c(F)c2)C(=O)O1 testresult=inactive
compound="CNC1C(O)C(OC2C(N)CC(N)C(OC3OC(CN)=CCC3N)C2O)OCC1(C)O (stereo not given)" testresult=inactive
compound="COc1ccc2cc1Oc1cc3c(cc1OC)CC[N+](C)(C)C3Cc1ccc(cc1)Oc1c(OC)c(OC)cc3c1C(C2)[N+](C)(C)CC3 (stereo not given)" testresult=inactive
compound="CNC1CCc2cc(OC)c(OC)c(OC)c2-c2ccc(OC)c(=O)cc21 (stereo not given)" testresult=inactive

----------
activity change, negative = inhibition for assorted compounds
assay: AP1 Signaling Pathway (AID 357); conditions: ME-180 (cervical carcinoma) AP-1-bla reporter, EGF-induced, beta-lactamase ratio, 5 h; at 17.2 µM (top of the series) unless noted;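 also: ME-180 reporter cells stimulated with EGF at its EC50 level; % is scaled to controls: 0 for no effect and ±100 for the full control effect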
Results filed as inconclusive are left out. Calls of active or inactive are those of the source. The call rests on the fitted dose curve; in most records, active means well fitted curve in either direction with a large enough effect (not every such curve was filed as active); inconclusive means small, poorly fitted or top-dose-only effect, or another doubt; inactive means flat fitted curve, though single readings scatter.
parameter: activity change, negative = inhibition

compound=Cc1cc(=O)n2[nH]cnc2n1 testresult="14.3% (inactive)"
compound=CC(NC(=O)Nc1nnc(C(F)(F)F)s1)(C(F)(F)F)C(F)(F)F testresult="-3.33% (inactive)"
compound="CCOc1cc(C2Nc3ccccc3C(=O)N2c2ccccc2OC)ccc1O (configuration not stated)" testresult="18.3% (inactive)"
compound="Cc1cccc(C)c1OCC(O)CNS(=O)(=O)c1ccccc1C(=O)N1CCCCC1 (configuration not stated)" testresult="-10.2% (inactive)"
compound=COCCCn1cnc2c(c1=O)c1nc3ccccc3nc1n2CCc1ccccc1 testresult="-15.7% (inactive)"
compound="CCOc1ccc(C2C(C(=O)c3ccc(C)o3)=C(O)C(=O)N2CCCN(CC)CC)cc1 (configuration not stated)" testresult="-5.84% (inactive)"
compound=COc1ccc(C(=O)NCCCCCC(=O)O)cc1OC testresult="5.18% (inactive)"
compound=CN(CCOC(=O)c1cccc(Br)c1)C(C)(C)C testresult="9.82% (inactive)"
compound="CC1CN(C2CCN(S(=O)(=O)Cc3ccccc3)CC2)CC(C)O1 (configuration not stated)" testresult="3.47% (inactive)"
compound=N[C@H](Cc1ccc(F)cc1)C(=O)O testresult="14.8% [at 38 µM] (inactive)"
compound="CC1CN(C2CCN(C(=O)COc3ccccc3)CC2)CC(C)O1 (configuration not stated)" testresult="-6.79% (inactive)"
compound=COc1cccc(-c2nc(NCCN3CCOCC3)c3ccccc3n2)c1O testresult="-15.3% (inactive)"
compound=CCOC(=O)c1sc2c(c1C)c(=O)c(C(=O)OCC)cn2CC testresult="-9.16% (inactive)"
compound=Cc1sccc1C1C(C#N)=C(N)SC(N)=C1C#N testresult="-12.4% (inactive)"
compound=c1cncc(Oc2cccc(Oc3cccnc3)c2)c1 testresult="-6.49% (inactive)"
compound="CC1CCc2cc(F)cc3c(O)c(C(=O)NCc4ccco4)c(=O)n1c23 (configuration not stated)" testresult="-28.9% (inactive)"
compound=COC(=O)c1ccc(=O)n(Cc2ccc3c(c2)OCO3)c1 testresult="-0.911% (inactive)"
compound=C/C(=N/n1cnnc1)c1cccnc1 testresult="-1.84% (inactive)"
compound=CCCSc1nnc(NC(=O)Nc2ccc(F)cc2)s1 testresult="-11.2% (inactive)"
compound=c1ccc(OCc2nn3c(-c4ccccn4)nnc3s2)cc1 testresult="-1.82% (inactive)"
compound=O=C(NCc1ccco1)c1cnn2c(C(F)(F)F)cc(-c3ccco3)nc12 testresult="-3.32% (inactive)"
compound="COC(=O)c1ccc(C2/C(=C(/O)c3ccc(OC)cc3)C(=O)C(=O)N2c2cc(C)on2)cc1 (configuration not stated)" testresult="-14% (inactive)"
compound=Fc1cnc(N2CCOCC2)nc1NCc1ccccc1 testresult="10.9% (inactive)"
compound="CCC1(C)Cc2c(sc3[nH]c(=O)[nH]c(=O)c23)CS1 (configuration not stated)" testresult="6.31% (inactive)"
compound="CC(=O)NC1(C(F)(F)F)C(=O)Nc2c1c(=O)n(C)c(=O)n2C (configuration not stated)" testresult="21.1% (inactive)"
compound="CC(C)C1Cc2c(C#N)c(N)sc(=S)c2CO1 (configuration not stated)" testresult="-19.3% (inactive)"
compound="O=C(C1CC1(c1ccccc1)c1ccccc1)N1CCOCC1 (configuration not stated)" testresult="-9.16% (inactive)"
compound=CCCc1nnc(NC(=O)c2c(O)c3c([nH]c2=O)CCCC3)s1 testresult="-4.44% (inactive)"
compound=O=C1C=C(NCCNc2c(F)c(F)c(CO)c(F)c2F)CCC1 testresult="-0.699% (inactive)"
compound=O=c1[nH]c2cnccc2n1-c1ccccc1 testresult="-12.9% (inactive)"
compound=COc1cc2nc(-c3ccccc3)nc(N3CCCC3)c2cc1OC testresult="24.5% (inactive)"
compound=COC(=O)c1c(NC(=O)c2nn(C)cc2Cl)sc2c1CCCC2 testresult="-24.3% (inactive)"
compound=N#Cc1c(SCC(=O)O)nc(N2CCCCC2)c2c1CCCC2 testresult="6.2% (inactive)"
compound=Cc1ccc(-c2nn(C)c(=O)c3ccccc23)cc1CNC(=O)CSc1nc2ccccc2o1 testresult="-10.6% (inactive)"
compound=Cc1cc(C)n(CC(=O)n2c3c(c4ccccc42)CCCC3)n1 testresult="5.13% (inactive)"
compound=O=C(NCc1ccccc1)c1ccc(=O)[nH]n1 testresult="2.35% (inactive)"
compound=S=c1[nH]nc(-c2ccco2)n1Cc1ccccc1 testresult="6.39% (inactive)"
compound=Cc1nc(N2CCN(Cc3ccccc3)CC2)c(C#N)c2c1COC(C)(C)C2 testresult="-29.1% (inactive)"
compound=Cc1cc(=O)oc(C)c1C(=O)N[C@@H]1CCCCNC1=O testresult="9.85% (inactive)"
compound=CCCOc1ccc(Cc2nn[nH]n2)cc1 testresult="6.52% (inactive)"
compound=Cc1c(C)c2cc(Cl)c(O)c(CN3CCCCC3)c2oc1=O testresult="17.2% (inactive)"
compound="CCN(CC)CCN1C(=O)C(=O)/C(=C(/O)c2c(C)[nH]c(C(=O)OC)c2C)C1c1ccccc1 (configuration not stated)" testresult="2.47% (inactive)"
compound=CCOC(=O)c1cc2c(=O)n3cccc(C)c3nc2n(CCc2ccccc2)c1=N testresult="9.31% (inactive)"
compound=O=C(NCCN1CCCCC1)c1ccc(=O)oc1 testresult="13.4% (inactive)"
compound=CSc1nc2sc3c(c2c(=O)n1C1CCCCC1)CCN(C)C3 testresult="-0.967% (inactive)"
compound=CC(C)(C)c1cc(Br)c(O)c(CN(Cc2cc(C(C)(C)C)cc(Br)c2O)C2CCCCC2)c1 testresult="10.4% [at 7.69 µM] (inactive)"
compound="CCOC(=O)C(OC(=O)c1sc(=S)n(C)c1C)C(C)=O (configuration not stated)" testresult="18% (inactive)"
